system: Acinetobacter baumannii NCTC 13304 (OXA-27); assay type: cell-based; conditions: NCTC 13304
Bridge positions count the residues as written; N and C are the ends. Square brackets hold non-standard residues; d marks the D form. Peptide text beside a SMILES is read from it. * marks the point of attachment. Heptanoyl(6-Me) = CC(C)CCCCC(=O)*; Nonanoyl = CCCCCCCCC(=O)*; dDab = NCC[C@@H](N)C(=O)O; Heptanoyl = CCCCCCC(=O)*; Octanoyl = CCCCCCCC(=O)*; dDap = NC[C@@H](N)C(=O)O; Dab = NCC[C@H](N)C(=O)O; Dap = NC[C@H](N)C(=O)O
What MIC was measured for each of the following?
Answer in µg/mL, number only, no unit symbol.

Form entry - test system: Acinetobacter baumannii NCTC 13304 (OXA-27); read-out: MIC; compound: CC(C)CCCCC(=O)N[C@@H](CN)C(=O)N[C@H](C(=O)N[C@H](CCN)C(=O)N[C@H]1CCNC(=O)[C@H]([C@@H](C)O)NC(=O)[C@H](CCN)NC(=O)[C@H](CCN)NC(=O)[C@H](CC(C)C)NC(=O)[C@@H](Cc2ccccc2)NC(=O)[C@H](CCN)NC1=O)[C@@H](C)O [Compound 92] ({Heptanoyl(6-Me)}-[Dap]T[dDab][Dab][Dab][dF]L[Dab][Dab]T; lactam 4-C)
0.03

So what MIC did CCCCCCC(=O)N[C@@H](CCN)C(=O)N[C@H](C(=O)N[C@@H](CCN)C(=O)N[C@H]1CCNC(=O)[C@H]([C@@H](C)O)NC(=O)[C@H](CCN)NC(=O)[C@H](CCN)NC(=O)[C@H]([C@@H](C)O)NC(=O)[C@@H](Cc2ccccc2)NC(=O)[C@H](CCN)NC1=O)[C@@H](C)O [Compound 19] (Heptanoyl-[Dab]T[Dab][Dab][Dab][dF]T[Dab][Dab]T; lactam 4-C) get with Acinetobacter baumannii NCTC 13304 (OXA-27)?
0.25

# get_value(readout= MIC, system= Acinetobacter baumannii NCTC 13304 (OXA-27)) for CCCCCCCCC(=O)N[C@@H](CCN)C(=O)N[C@H](C(=O)N[C@H](CN)C(=O)N[C@H]1CCNC(=O)[C@H]([C@@H](C)O)NC(=O)[C@H](CCN)NC(=O)[C@H](CCN)NC(=O)[C@H]([C@@H](C)O)NC(=O)[C@@H](Cc2ccccc2)NC(=O)[C@H](CCN)NC1=O)[C@@H](C)O [Compound 5] (Nonanoyl-[Dab]T[dDap][Dab][Dab][dF]T[Dab][Dab]T; lactam 4-C)
0.06

# returns recorded MIC (system: Acinetobacter baumannii NCTC 13304 (OXA-27)) for CCCCCCCC(=O)N[C@@H](CN)C(=O)N[C@H](C(=O)N[C@H](CO)C(=O)N[C@H]1CCNC(=O)[C@H]([C@@H](C)O)NC(=O)[C@H](CCN)NC(=O)[C@H](CCN)NC(=O)[C@H]([C@@H](C)O)NC(=O)[C@@H](Cc2ccccc2)NC(=O)[C@H](CCN)NC1=O)[C@@H](C)O [Compound 53] (Octanoyl-[Dap]T[dS][Dab][Dab][dF]T[Dab][Dab]T; lactam 4-C)
0.25

----------
tested on: Pseudomonas aeruginosa ATCC 27853; format: cell-based; details: Pseudomonas aeruginosa ATCC27853
Bridge positions count the residues as written; N and C are the ends. Square brackets hold non-standard residues; d marks the D form. Peptide text beside a SMILES is read from it. * marks the point of attachment. Heptanoyl(6-Me) = CC(C)CCCCC(=O)*; dDap = NC[C@@H](N)C(=O)O; Dab = NCC[C@H](N)C(=O)O; Dap = NC[C@H](N)C(=O)O
parameter: MIC

Looking for the measured MIC of CC(C)CCCCC(=O)N[C@@H](CCN)C(=O)N[C@H](C(=O)N[C@@H](CN)C(=O)N[C@H]1CCNC(=O)[C@H]([C@@H](C)O)NC(=O)[C@H](CCN)NC(=O)[C@H](CCN)NC(=O)[C@H]([C@@H](C)O)NC(=O)[C@@H](Cc2ccccc2)NC(=O)[C@H](CCN)NC1=O)[C@@H](C)O [Compound 7] ({Heptanoyl(6-Me)}-[Dab]T[Dap][Dab][Dab][dF]T[Dab][Dab]T; lactam 4-C) , can you help?
≤0.03 mg/L

Need MIC of CC(C)CCCCC(=O)N[C@@H](CCN)C(=O)N[C@H](C(=O)N[C@H](CN)C(=O)N[C@H]1CCNC(=O)[C@H]([C@@H](C)O)NC(=O)[C@H](CCN)NC(=O)[C@H](CCN)NC(=O)[C@H]([C@@H](C)O)NC(=O)[C@@H](Cc2ccccc2)NC(=O)[C@H](CCN)NC1=O)[C@@H](C)O [Compound 2] ({Heptanoyl(6-Me)}-[Dab]T[dDap][Dab][Dab][dF]T[Dab][Dab]T; lactam 4-C) , thanks.
≤0.03 mg/L

Consider the molecule shown here: CC(C)CCCCC(=O)N[C@@H](CCN)C(=O)N[C@H](C(=O)N[C@H](CN)C(=O)N[C@H]1CCNC(=O)[C@H]([C@@H](C)O)NC(=O)[C@H](CCN)NC(=O)[C@H](CCN)NC(=O)[C@H]([C@@H](C)O)NC(=O)[C@H](Cc2ccccc2)NC(=O)[C@H](CCN)NC1=O)[C@@H](C)O [Compound 102] ({Heptanoyl(6-Me)}-[Dab]T[dDap][Dab][Dab]FT[Dab][Dab]T; lactam 4-C) What is its recorded MIC?
>64 mg/L
